# experiment_notes: protein stability index of a GFP-peptide fusion (yeast GPS) (PSI 1-4); higher = more stable; sorted into four equal gates, so the index is relative within each strain
# assay_context: ubr1∆
Label class 1 when protein stability index is at or above 3; anything below gets class 0.

The following sequences have reported results that may help.
SRNGDFPRTRFEAQIDS [RPN10]; class 1
LQRDLFIRLPHWPLNWY [RGR1]; class 0
SFFIASQLQEQFNKILP [FAS1]; class 0
VSCYRPRRDGERKRKSV [RPS6A]; class 1

Then there is this sequence:
Decide: protein stability index of TKWGLINYQVDSKLLPK [SWI3] >= 3?
class 0

* * *

Quick reference: protein stability index of the listed items.
# experiment_notes: protein stability index of a GFP-peptide fusion (yeast GPS) (PSI 1-4); higher = more stable; sorted into four equal gates, so the index is relative within each strain
# assay_context: ubr1∆
The reply should be a number, written without any unit.

Reference set, count: 8
LSGLAQRKTNGASNGDD [BRN1]; 3.6
DNIDEKVVKAIRIYFTE [NUT1]; 2.39
VVEEFTPVVLATPIPEE [RPS5]; 2.17
EINETEFIRCGCLIKNL [RMP1]; 2.91
SYDFLPLSNIKALLFFN [RPN12]; 1.82
REIESLIAEETNNKKLL [SMC3]; 2.92
RVWAEYATKRQEAIQQN [PRP8]; 2.2
QQTGLVDAITRCYQPFE [SNU114]; 2.98

Give reported protein stability index value for IAAYIRRHRNPDLQFIV [SMC1]
1.07

Give reported protein stability index value for QETQHGNITRGLAVGLA [RPN2]
2.88

* * *

# experiment_notes: protein stability index of a GFP-peptide fusion (yeast GPS) (PSI 1-4); higher = more stable; sorted into four equal gates, so the index is relative within each strain
# assay_context: pdr5∆
Label fulfilled when protein stability index is at or above 3; anything below gets not fulfilled.

The following sequences have reported results that may help.
ASSAVMNRRKIAMPKRR [YLR335W/NUP2]; not fulfilled
PVQIVKRITQITIEPGV [RPS20]; not fulfilled
THHTDIIPIVDYAQLDH [ARP9]; not fulfilled
NQQQQQQQQQQQQRRQL [GAL11]; not fulfilled
SKRRITEELSITGEKLD [SMC1]; not fulfilled
LKFVKVRVRTTKIPQIG [RPB2]; not fulfilled
GLEVGPVVQVGIFIKIL [IRR1]; not fulfilled
NDDELNKLLGNVTIAQG [HTA1]; fulfilled
RLERRINLTKVTQKDIC [CSI1]; not fulfilled
DRHIGCVYSGLIPDGRH [PRE10]; fulfilled

Decide: protein stability index of AQSRNVEIEKRILKLGT [YGR119C/NUP57] >= 3?
fulfilled

Decide: protein stability index of GKILLKGDNITLITSAD [SME1] >= 3?
fulfilled

* * *

# experiment_notes: protein stability index of a GFP-peptide fusion (yeast GPS) (PSI 1-4); higher = more stable; sorted into four equal gates, so the index is relative within each strain
# assay_context: doa10∆
measure_name: protein stability index
The reply should be a number, written without any unit.

Reference set, count: 3
ISEKDLVPKRCLFESLS [RPO31]; 2.59
EDLHEKNDSAEVRQETQ [NUT1]; 3.48
SRPATTTRNGFMEAQGA [FAS2]; 2.28

Give reported protein stability index value for MKAVGEYMKRHPTTIES [SEC65]
1.93

Give reported protein stability index value for KRAFTKKVASANATAAE [RPL16A]
2.73

Give reported protein stability index value for AMREVNDEKRVKEEYDI [YIL149C/MLP2]
2.62

Give reported protein stability index value for NCIRILADKLENYEGKQ [YIL149C/MLP2]
3

Give reported protein stability index value for FSNVELPQCIIPSSYIK [ARP7]
2.38

Give reported protein stability index value for LLVKFIKFFWNNTHVGR [YLR018C/POM34]
2.97

Give reported protein stability index value for SNKILVYESEMEQCKQR [YIL149C/MLP2]
2.72

Source of measurements: the supplement of paper PMC9732359
